# target_or_test_system: Beta-3 Adrenergic Receptor (Homo sapiens (Human), UniProt P13945)
# Sequence (P13945 whole entry, species assumed): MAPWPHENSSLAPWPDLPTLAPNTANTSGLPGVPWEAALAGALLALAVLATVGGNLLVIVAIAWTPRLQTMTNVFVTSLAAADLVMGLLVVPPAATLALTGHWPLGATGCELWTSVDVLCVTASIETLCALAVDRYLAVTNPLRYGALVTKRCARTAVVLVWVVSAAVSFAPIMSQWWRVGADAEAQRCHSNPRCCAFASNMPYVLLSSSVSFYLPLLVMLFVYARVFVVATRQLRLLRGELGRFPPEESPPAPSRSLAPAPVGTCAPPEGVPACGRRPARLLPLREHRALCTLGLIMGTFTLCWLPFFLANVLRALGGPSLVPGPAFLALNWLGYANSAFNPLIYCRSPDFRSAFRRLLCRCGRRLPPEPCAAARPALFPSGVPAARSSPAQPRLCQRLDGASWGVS
# experiment: Homogeneous Time-Resolved Fluorescence (HTRF) cAMP antagonist assay, IC50 determination
# condition_notes: CHO-K1 cells stably expressing recombinant receptor, isoproterenol at EC90
Note that class boundaries on IC50 are band 1: < 20 nM; band 2: ≥ 20 nM and < 60 nM; band 3: ≥ 60 nM

Query: Into which category would you place CNS(=O)(=O)c1cccc(OC[C@@H](O)CNC2COC3(CCN(S(=O)(=O)c4cccc(Br)c4)CC3)C2)c1 (stereo partly drawn) ?
Response: band 1

Query: Into which category would you place `CNS(=O)(=O)c1cccc(OC[C@@H](O)CN[C@H]2COC3(CCN(S(=O)(=O)c4cccc(-c5ccc(CN)cc5)c4)CC3)C2)c1` ?
Response: band 1

Query: Into which category would you place `CNS(=O)(=O)c1cccc(OC[C@@H](O)CN[C@H]2COC3(CCN(S(=O)(=O)c4ccc5[nH]ncc5c4OC)CC3)C2)c1` ?
Response: band 3

Query: Into which category would you place CCNS(=O)(=O)c1cccc(OC[C@@H](O)CNC2COC3(CCN(S(=O)(=O)c4cc(C)ccc4F)CC3)C2)c1 (stereo partly drawn) ?
Response: band 3

Query: Into which category would you place `CNS(=O)(=O)c1cccc(OC[C@@H](O)CN[C@H]2COC3(CCN(S(=O)(=O)c4cnc5c(c4)OCCN5)CC3)C2)c1` ?
Response: band 2

Query: Into which category would you place CCNS(=O)(=O)c1cccc(OC[C@@H](O)CNC2COC3(CCN(S(=O)(=O)c4ccc(Br)c(C)c4)CC3)C2)c1 (stereo partly drawn) ?
Response: band 2

Query: Into which category would you place CNS(=O)(=O)c1cccc(OC[C@@H](O)CNC2COC3(CCN(S(=O)(=O)c4cccc(-c5sccc5C)c4)CC3)C2)c1 (stereo partly drawn) ?
Response: band 2
